# Tested on: Streptococcus pneumoniae
# assay-procedure: Antibacterial activity against Streptococcus pneumoniae IID553 by micro-broth dilution method
# Assay type: functional
# particulars: Streptococcus pneumoniae, IID553; read-out: MIC
Reported MIC values for the following molecules.
metric-name: MIC (µg/mL)

>>> reported_value("COc1ccc2ncc(F)c(C(CC34CCC(NCc5ccc6c(n5)NC(=O)CO6)(CC3)CO4)C(=O)O)c2n1 (racemic)")
4
>>> reported_value("COc1ccc2ncc(F)c(C/C(=N\\O)C34CCC(NCc5ccc6c(n5)NC(=O)CO6)(CC3)CO4)c2n1")
2
>>> reported_value("COc1ccc2ncc(F)c(CC(=O)C34CCC(NCc5ccc6c(n5)NC(=O)CO6)(CC3)CO4)c2n1")
0.25
>>> reported_value("COc1ccc2ncc(F)c([C@@H]3OC(=O)O[C@H]3C34CCC(NCc5ccc6c(n5)NC(=O)CO6)(CC3)CO4)c2n1 (single isomer, unassigned; (-))")
2
>>> reported_value("COc1ccc2ncc(F)c(CC(NS(C)(=O)=O)C34CCC(NCc5ccc6c(n5)NC(=O)CO6)(CC3)CO4)c2n1 (racemic)")
32
>>> reported_value("COc1ccc2ncc(F)c(C/C(=N/O)C34CCC(NCc5ccc6c(n5)NC(=O)CO6)(CC3)CO4)c2n1")
16
>>> reported_value("COc1ccc2ncc(F)c(CC(OCC(=O)O)C34CCC(NCc5ccc6c(n5)NC(=O)CO6)(CC3)CO4)c2n1 (racemic)")
32
>>> reported_value("COc1ccc2ncc(F)c(C[C@H](OC)C34CCC(NCc5ccc6c(n5)NC(=O)CO6)(CC3)CO4)c2n1")
2
>>> reported_value("COc1ccc2ncc(F)c([C@@H](O)[C@H](O)C34CCC(NCc5ccc6c(n5)NC(=O)CO6)(CC3)CO4)c2n1")
2
>>> reported_value("COc1ccc2ncc(F)c(CC(C)(O)C34CCC(NCc5ccc6c(n5)NC(=O)CO6)(CC3)CO4)c2n1 (racemic)")
0.5
>>> reported_value("COc1ccc2ncc(F)c([C@H](O)[C@@H](O)C34CCC(NCc5ccc6c(n5)NC(=O)CO6)(CC3)CO4)c2n1 (single isomer, unassigned; (-))")
8
>>> reported_value("COc1ccc2ncc(F)c(C(C)(O)CC34CCC(NCc5ccc6c(n5)NC(=O)CO6)(CC3)CO4)c2n1 (racemic)")
4

* * *

This section presents compounds with their documented IC50 values.
# experimental-target: Voltage-gated inwardly rectifying potassium channel KCNH2 (Homo sapiens)
# Sequence (Q12809 whole entry): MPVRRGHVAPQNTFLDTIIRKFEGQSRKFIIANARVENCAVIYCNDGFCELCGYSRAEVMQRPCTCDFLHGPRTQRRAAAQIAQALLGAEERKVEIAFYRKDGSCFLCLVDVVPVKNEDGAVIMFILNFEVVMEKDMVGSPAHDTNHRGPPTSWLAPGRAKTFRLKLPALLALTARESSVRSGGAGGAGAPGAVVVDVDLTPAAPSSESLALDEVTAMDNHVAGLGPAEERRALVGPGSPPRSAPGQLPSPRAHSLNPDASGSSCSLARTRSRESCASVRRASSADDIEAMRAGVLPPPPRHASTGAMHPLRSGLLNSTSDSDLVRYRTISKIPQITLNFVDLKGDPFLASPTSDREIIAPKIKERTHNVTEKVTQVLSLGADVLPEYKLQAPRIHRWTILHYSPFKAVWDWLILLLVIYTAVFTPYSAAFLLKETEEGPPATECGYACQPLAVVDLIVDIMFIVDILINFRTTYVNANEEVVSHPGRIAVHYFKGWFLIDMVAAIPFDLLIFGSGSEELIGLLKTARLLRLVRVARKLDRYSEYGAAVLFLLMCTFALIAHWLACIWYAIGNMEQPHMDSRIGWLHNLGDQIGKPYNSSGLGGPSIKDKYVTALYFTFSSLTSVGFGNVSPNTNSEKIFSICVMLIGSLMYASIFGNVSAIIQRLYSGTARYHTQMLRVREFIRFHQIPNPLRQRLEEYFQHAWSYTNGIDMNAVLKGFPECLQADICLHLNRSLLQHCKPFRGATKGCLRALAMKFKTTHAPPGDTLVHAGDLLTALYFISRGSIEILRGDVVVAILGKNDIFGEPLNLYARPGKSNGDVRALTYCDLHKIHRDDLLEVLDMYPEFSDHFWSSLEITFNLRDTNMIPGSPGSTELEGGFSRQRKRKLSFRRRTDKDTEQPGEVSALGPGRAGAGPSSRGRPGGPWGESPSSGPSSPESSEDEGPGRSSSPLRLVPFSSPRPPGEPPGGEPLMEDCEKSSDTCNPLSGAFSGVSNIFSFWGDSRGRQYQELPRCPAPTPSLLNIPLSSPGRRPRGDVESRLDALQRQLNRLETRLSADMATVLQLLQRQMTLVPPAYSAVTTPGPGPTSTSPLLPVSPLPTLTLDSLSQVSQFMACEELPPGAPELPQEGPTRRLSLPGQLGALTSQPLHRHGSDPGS
# assay-procedure: Displacement of MK499 from human ERG
metric-name: IC50 (µM)

>>> reported_value("COc1ccc2ncc(F)c(CC(C)(O)C34CCC(NCc5ccc6c(n5)NC(=O)CO6)(CC3)CO4)c2n1 (racemic)")
6.1
>>> reported_value("CO/N=C(/Cc1c(F)cnc2ccc(OC)nc12)C12CCC(NCc3ccc4c(n3)NC(=O)CO4)(CC1)CO2")
2.5
>>> reported_value("COc1ccc2ncc(F)c([C@@H]3OC(=O)O[C@H]3C34CCC(NCc5ccc6c(n5)NC(=O)CO6)(CC3)CO4)c2n1 (single isomer, unassigned; (-))")
4.9
>>> reported_value("COc1ccc2ncc(F)c([C@H]3OC(=O)O[C@@H]3C34CCC(NCc5ccc6c(n5)NC(=O)CO6)(CC3)CO4)c2n1 (single isomer, unassigned; (+))")
11.2
